# Tested on: EAC-bearing mice
# PROTOCOL SUMMARY: Hepatotoxicity and kidney toxicity parameters of EAC-bearing mice
# Assay type: in vivo, mouse
# PARTICULARS: EAC-bearing mice, treatment at IC50 dosage, mean±SD n=6
Entries and their measured ALT follow.

Use these answered entries as a reference point.
[[record]]
molecule = "COc1cc(O)c2c(=O)c3c(O)ccc(OC)c3oc2c1 [XB, 1,8-dihydroxy-3,5-dimethoxyxanthone]"
experimental_readout = "ALT"
result = "93±4 IU/l"

[[record]]
molecule = "COc1cc(O)c2c(=O)c3c(OC)c(OC)ccc3oc2c1 [XA, 1-hydroxy-3,7,8-trimethoxyxanthone]"
experimental_readout = "ALT"
result = "91±3 IU/l"

[[record]]
molecule = "COc1cc(O)c2c(=O)c3c(O)ccc(O)c3oc2c1 [XD, 1,5,8-trihydroxy-3-methoxyxanthone]"
experimental_readout = "ALT"
result = "79±2 IU/l"


The record that follows has no ALT shown yet.
Q: # query: ALT of entry COc1cc(O)c2c(=O)c3c(OC)ccc(OC)c3oc2c1 [XC, 1-hydroxy-3,5,8-trimethoxyxanthone]
Result: 85±5 IU/l
